Molecular target: T1, mutant β′-COP (D437A/D450A), residues 1–604, untagged (yeast (S. cerevisiae), UniProt P41811 1-604, D437A | D450A)
T1 sequence (looked up): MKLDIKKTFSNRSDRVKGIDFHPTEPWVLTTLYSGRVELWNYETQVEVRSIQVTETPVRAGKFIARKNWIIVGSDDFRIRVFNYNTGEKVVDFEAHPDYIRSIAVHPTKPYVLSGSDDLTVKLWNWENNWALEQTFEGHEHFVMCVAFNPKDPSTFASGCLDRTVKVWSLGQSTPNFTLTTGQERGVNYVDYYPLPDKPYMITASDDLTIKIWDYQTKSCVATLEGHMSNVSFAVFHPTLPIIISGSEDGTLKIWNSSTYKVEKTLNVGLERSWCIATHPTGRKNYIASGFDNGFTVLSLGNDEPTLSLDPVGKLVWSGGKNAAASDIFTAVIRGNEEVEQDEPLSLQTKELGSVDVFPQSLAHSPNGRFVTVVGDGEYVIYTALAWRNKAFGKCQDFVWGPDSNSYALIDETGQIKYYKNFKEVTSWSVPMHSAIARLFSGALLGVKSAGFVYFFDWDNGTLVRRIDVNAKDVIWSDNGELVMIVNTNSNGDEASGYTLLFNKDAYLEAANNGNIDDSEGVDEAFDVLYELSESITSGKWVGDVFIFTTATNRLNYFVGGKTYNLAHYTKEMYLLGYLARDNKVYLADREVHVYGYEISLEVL
Assay: ITC
property: Kd (µM)

binder: untagged Glo3 residues 230–290 (domain or fragment, yeast (S. cerevisiae), UniProt P38682 230-290, looked up) SQDKKKHSILSSSRKPTRLTAKKVDKSQAEDLFDQFKKEAQQEKEDEFTNSSSSTKIRQND
uom: µM
result number: 18
